# Test system: Caco-2 cells
# Procedure Details: MTT assay, Caco-2 cells (HER2-positive)
# Measurement Setup: Homo sapiens, Caco-2, read-out: IC50, cytotoxicity against Caco-2 cells
# Protocol: CCD-18 cells were maintained in Dulbecco's minimal essential medium (DMEM, ATCC) supplemented with 10% fetal bovine serum (FBS, ATCC), 100 U/ml penicillin G, and 100 μg/ml streptomycin at 37° C. in a humid atmosphere of 5% CO2 atmosphere. […] The assay was carried out following a reported procedure. […] The blue formazan product formed by reduction of MTT by mitochondrial dehydrogenase in viable cells was then measured by absorbance at 570 nm. […]
pIC50: −log10 of the molar value.
Reported Metric: pIC50

Incoming: Look up pIC50 with Caco-2 cells for this compound: C[C@H]1[C@H](OC(=O)CCC(=O)O)O[C@@H]2O[C@@]3(C)CC[C@H]4[C@H](C)CC[C@@H]1[C@@]24OO3 [Artesunate]
Outgoing: ~6.01

###

# Procedure Details: MTT assay, CCD-18 cells (HER2-negative normal colon)
# Measurement Setup: human, CCD-18 cells (normal colon, HER2-negative)
pIC50: −log10 of the molar value.
Reported Metric: pIC50

Incoming: Requested read-out: pIC50. Entry: C[C@H]1[C@H](OC(=O)CCC(=O)O)O[C@@H]2O[C@@]3(C)CC[C@H]4[C@H](C)CC[C@@H]1[C@@]24OO3 [Artesunate]
Outgoing: ~5.25

###

# Procedure Details: MTT assay, Caco-2 cells (HER2-positive)
pIC50: −log10 of the molar value. Residues, ends and D or L forms follow the SMILES beside them. *: point of attachment. X1 = C[C@H]1[C@H](OC(=O)CCC(=O)*)O[C@@H]2O[C@@]3(C)CC[C@H]4[C@H](C)CC[C@@H]1[C@@]24OO3
Reported Metric: pIC50

Incoming: What measured pIC50 goes with CC(C)C[C@H](NC(=O)[C@H](CO)NC(=O)[C@H](Cc1ccc(O)cc1)NC(=O)[C@H](CS)NC(=O)[C@H](CS)NC(=O)[C@H](CCCCN)NC(=O)CNC(=O)[C@H](CO)NC(=O)CNC(=O)CCC(=O)O[C@@H]1O[C@@H]2O[C@@]3(C)CC[C@H]4[C@H](C)CC[C@@H]([C@H]1C)[C@@]24OO3)C(N)=O [ART-HER2 conjugate] (X1-GSGKCCYSL-NH2) ?
Outgoing: ~4.82
